Data provenance: the supplement of paper PMC10567573

B1: FCHSD1 (parent)
chain: LEAAEVILEHAHRGEQTTSQVSWE

- Variants of: B1
- procedure-details: protein stability index of a GFP-peptide fusion (GPS, HEK-293T) (PSI 1-6); higher = more stable;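 also: lentivirally expressed fusions sorted by FACS into six bins by GFP to DsRed ratio, PSI derived from sequencing read proportions per bin multiplied by bin number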
- experimental-setup: c terminus: a fixed tail appended
quantity: protein stability index

Use the examples below as a reference point.
protein stability index for `Q16G` ? 4.42

Same again, this time with `T18Q` 3.21

Same again, this time with `G14E` 4.53

Same again, this time with `S19I` 3.02

Same again, this time with `L1Y` 5

Others:
protein stability index for `A4H` ? 4.46

Same again, this time with `E9R` 3.39

Same again, this time with `T18E` 4.2

Same again, this time with `T18A` 3.72

Same again, this time with `Q16H` 4.05
